- Test Summary: qHTS Assay for Lipid Storage Modulators (AID 1519); further: on the % scale 0 is the no-effect control and ±100 the full control effect
- Assay Context: Drosophila S3 cells, BODIPY lipid droplet/cell ratio, laser cytometry; at 57.5 µM (top of the series); cells loaded with oleic acid
Inconclusive results are not listed.
Record form. Attribute: activity change, negative = inhibition. Fill in for each entry.
Numeric only. Scale: %

QUERY: Item under review: CC(C)CN1CCC2(CC1)CCN(C(=O)c1cc(C(F)(F)F)cc(C(F)(F)F)c1)CC2 . Reported activity change, negative = inhibition?
RESULT: -2.84

QUERY: Item under review: Cn1cccc1C(=O)N1CCC2(CCN(Cc3ccccc3)CC2)CC1 . Reported activity change, negative = inhibition?
RESULT: 4.86

QUERY: Item under review: O=C(Nc1cccc(F)c1)N1CC[C@@]2(CCCN(C(=O)c3csnn3)C2)C1 . Reported activity change, negative = inhibition?
RESULT: 3.72

QUERY: Item under review: N#Cc1ccc(CN2CC[C@@]3(CCCN(S(=O)(=O)c4ccccc4)C3)C2)cc1 . Reported activity change, negative = inhibition?
RESULT: -4.95

QUERY: Item under review: COc1cc(C)c2c(c1C=O)Oc1c(c(C)c(O)c3c1C(O)OC3=O)OC2=O (stereo unspecified) . Reported activity change, negative = inhibition?
RESULT: 4.32

QUERY: Item under review: COCC(=O)N1CCC2(CCCN(Cc3ccc(C#N)cc3)C2)CC1 . Reported activity change, negative = inhibition?
RESULT: 4.66

QUERY: Item under review: COCC(=O)N1CCC2(CC1)CCN(c1ccncc1)CC2 . Reported activity change, negative = inhibition?
RESULT: -1.56

QUERY: Item under review: COc1ccc2[nH]cc(CCNc3ncnc4ccc(-c5ccc6c(c5)OCO6)cc34)c2c1 . Reported activity change, negative = inhibition?
RESULT: 2.76

QUERY: Item under review: COc1ccc(C(=O)N2CCC3(CCN(Cc4ccccc4)CC3)CC2)cc1 . Reported activity change, negative = inhibition?
RESULT: 0.635

QUERY: Item under review: COc1ccccc1-c1nccc(Nc2ccc(F)cc2)n1 . Reported activity change, negative = inhibition?
RESULT: 4.58

QUERY: Item under review: CC1(C)C(O)CC[C@]2(C)C1CC[C@@]1(C)C2C(=O)C=C2[C@@H]3C[C@@](C)(C(=O)O)CC[C@@]3(C)CCC21C (stereo partly specified) . Reported activity change, negative = inhibition?
RESULT: 9.4

QUERY: Item under review: COc1ccccc1CN1CC[C@@]2(CCCN(C(=O)c3ccncc3)C2)C1 . Reported activity change, negative = inhibition?
RESULT: 3.67

QUERY: Item under review: CN1CCN(c2ncc3nc(-c4ccccc4)c(=O)n(C4CC4)c3n2)CC1 . Reported activity change, negative = inhibition?
RESULT: 4.04

QUERY: Item under review: c1ccc2c(Nc3ccncc3)nc(-c3ccoc3)nc2c1 . Reported activity change, negative = inhibition?
RESULT: 14.9

QUERY: Item under review: C=C(NC(=O)C(=C)NC(=O)c1csc(C2=NC3c4csc(n4)C4NC(=O)c5csc(n5)C(C(C)(O)C(C)O)NC(=O)C5CSC(=N5)C(=CC)NC(=O)C(C(C)O)NC(=O)c5csc(n5)C3(CC2)NC(=O)C(C)NC(=O)C(=C)NC(=O)C(C)NC(=O)C(C(C)CC)NC2C=Cc3c(C(C)O)cc(nc3C2O)C(=O)OC4C)n1)C(N)=O (stereo unspecified) . Reported activity change, negative = inhibition?
RESULT: -19.2

QUERY: Item under review: Cn1cccc1C(=O)N1CCC2(CC1)CN(c1ccncc1)C2 . Reported activity change, negative = inhibition?
RESULT: 2.57

QUERY: Item under review: CN1CCN(c2ncc3nc(CCc4ccccc4)c(=O)n(C)c3n2)CC1 . Reported activity change, negative = inhibition?
RESULT: 3.14

QUERY: Item under review: COCCNc1nc(-c2cccc(OC)c2)nc2ccccc12 . Reported activity change, negative = inhibition?
RESULT: -5.01

QUERY: Item under review: COc1ccccc1CN1CCCC2(CCN(C(=O)c3cnccn3)CC2)C1 . Reported activity change, negative = inhibition?
RESULT: 3.91

QUERY: Item under review: CC(C)CN1CC2(CCN(C(=O)c3csnn3)CC2)C1 . Reported activity change, negative = inhibition?
RESULT: -0.802

QUERY: Item under review: Cc1ccccc1-c1ccc2ncnc(N3CCN(C)CC3)c2c1 . Reported activity change, negative = inhibition?
RESULT: -2.02
